Where do these numbers come from? They come from PubChem BioAssay AID588689.

targetSystem: Genome polyprotein (Dengue virus type 2 (strain 16681-PDK53))
assayName: flavivirus cap methylation enzyme inhibition – biochemical, confirmation dose response, primary screen (AID 588689)
measurementParameters: Dengue-2 NS5 methyltransferase capping enzyme assay, at 25 µM, active compounds read high
Among all 340,000 compounds or so, about 1,000 (0.29%) were called active. Only a sample is shown. Measured potencies and affinities stand elsewhere.
Reported inhibition values follow for various compounds
readoutType: inhibition (%)

INSERT INTO measurements (molecularstring, readouttype, unitofmeasure, obsvalue) VALUES
  ('Cc1[nH][nH]c(=O)c1C(c1ccc(-c2ccccc2C(=O)O)o1)c1c(C)[nH][nH]c1=O', 'inhibition', '%', 39),
  ('Cc1[nH][nH]c(=O)c1C(c1ccc(-c2cccc(C(=O)O)c2)o1)c1c(C)[nH][nH]c1=O', 'inhibition', '%', 21.1),
  ('Cc1nc(SCC(=O)N2CC(=O)Nc3ccccc32)nc(C)c1C', 'inhibition', '%', 2.34),
  ('Cc1nc2ccccn2c1C(=O)N/N=C/c1ccccc1Cl', 'inhibition', '%', 0.65);

----------
targetSystem: Genome polyprotein (Dengue virus type 2 (strain 16681-PDK53))
assayName: flavivirus cap methylation enzyme inhibition – biochemical, confirmation dose response, primary screen (AID 588689)
measurementParameters: Dengue-2 NS5 methyltransferase capping enzyme assay, at 25 µM, active compounds read high
Screen size: about 340,000 compounds; about 1,000 (0.29%) were called active. Only a sample is shown. Potency and affinity values are given separately.
readoutType: inhibition (%)

INSERT INTO results (compound, unitofmeasure, obsvalue) VALUES
  ('C/C(CCC(=O)O)=N/Nc1ccc([N+](=O)[O-])cc1[N+](=O)[O-]', '%', -3.25),
  ('CCCCCC1CC(CC(=O)NC(=S)Nc2ccccc2Cl)C(=O)O1 (centres undefined)', '%', -4.68),
  ('COC(=O)C1=C(C)NC(=O)/C1=C\c1cc(C)n(-c2ccccc2F)c1C', '%', 5.5),
  ('COc1cc(CN2CCCCCC2)c([N+](=O)[O-])cc1OC', '%', 0),
  ('COC(=O)c1cc(COC(=O)c2nc3nccc(C)n3n2)oc1C', '%', 0),
  ('COc1ccc(N(CC(=O)N2CCN(Cc3ccccc3)CC2)S(=O)(=O)c2ccccc2)cc1', '%', -5.2),
  ('Cc1cc(/C=C2/C(=O)NN(c3ccccc3)C2=O)c(C)n1-c1ccc(O)cc1', '%', 5.82),
  ('COC1=CC(=O)C=C(OC)C1=O', '%', -8.21),
  ('CCN(CC)S(=O)(=O)c1ccc(N2CCOCC2)c(NC(=O)c2cc3ccccc3oc2=O)c1', '%', -2.2),
  ('Cc1ccnc(SCC(=O)N2CCC(C(N)=O)CC2)n1', '%', 5.18),
  ('C[C@H](CO)N1C[C@H](C)[C@@H](CN(C)Cc2ccc(C(=O)O)cc2)Oc2c(NS(=O)(=O)c3cccs3)cccc2C1=O', '%', 2.31),
  ('CC1CN(CCc2ccccc2)C(C)C/C1=N/O (centres undefined)', '%', -3.09),
  ('COC(=O)C1=CN(c2ccc(OC)cc2)C=C(C(=O)OC)C1c1ccc([N+](=O)[O-])cc1', '%', -9.75),
  ('CCN(CC)S(=O)(=O)c1ccc(C(=O)NCC2CCCCC2)cc1', '%', 2.49);
